test system: HCT-116 colon; assay: NCI-60 one-dose screen, 48 h (100 = growth as untreated, 0 = no growth, -100 = all killed); settings: 10 µM unless noted
The panel holds about 83,000 compounds, 20% with a hit somewhere; the sample as a whole holds those more often. Active and inactive are the calls of the source. The calls were made as follows: active = growth percent below 10; inactive = the rest.
growth reference

These solved cases illustrate the format of a correct answer.
Retrieve growth measured for CCOC(=O)c1cc(C(=O)c2ccc(OC)c(OC)c2)n2ccc(-c3ccccn3)cc12 and print it. 99.9% (inactive)

Return growth (reported value) for this compound: C=C(C)[C@@H]1CC[C@]2(C(=O)NCCNCCNC(=O)OC(C)(C)C)CC[C@]3(C)[C@H](CC[C@@H]4[C@@]5(C)CCC(=O)C(C)(C)[C@@H]5CC[C@]43C)[C@@H]12 17.5% [100 µM] (inactive)

Identify growth associated with the compound CC1Cc2c(Cl)ncnc2N(C)c2ccc(O)cc21 (stereo not given) 65.6% (inactive)

Supply measured growth of COc1cc(C(=O)/C=C/c2c(-c3ccc(F)cc3)nc3sccn23)cc(OC)c1OC in your reply. 23.3% (inactive)

Please indicate growth recorded for C[n+]1c2ccccc2nc2c(N)cc(N)cc21 78.2% (inactive)

Supply growth value. Item: COc1cc(/C=C/C(=O)/C=C/c2ccc(-n3ccnc3C)cc2)ccc1O 90.6% (inactive)

Further cases:
Give recorded growth. COc1ccc2c3ccnc(C(F)(F)F)c3n(CCCCN)c2c1 16.5% (inactive)

Answer with reported growth of C=CCCC1(C)NC(=O)NC1=O (stereo not given) 96.6% (inactive)

Supply measured growth of O=C(OCc1ccc2c(Cl)cc(Cl)c(O)c2n1)N1CCNCC1 in your reply. 27.5% (inactive)

Supply growth value. Item: C=CCc1nc2ccccc2s1 104% (inactive)

###

Recorded measurements of growth, one per entry
Tested on: RXF 393 renal
Assay: NCI-60 one-dose screen, 48 h (100 = growth as untreated, 0 = no growth, -100 = all killed)
Details: 10 µM unless noted
Protocol: Cells are grown in 96 well plates and exposed to the test compound for 48 hours. Compounds are tested at a single concentration, which is 10^-5 M for most compounds. The reported endpoint is percent growth (GI% or GIPRCNT), where numbers from 0 - 100% represent growth inhibition, and numbers from -100% - 0 represent cell death. For example, a value of 40 represents 60% growth inhibition. A value of 0 means no net growth occurred over the course of the experiment. […]
This is part of a sample that, as a whole, favours compounds with a hit. Of some 83,000 tested, about 20% had one in any assay.
The response must be a number in % with no trailing unit.

For the compound C=CCc1nc2ccccc2s1 , give its reported growth. 122

Give the measured growth for COc1cccc(-c2[nH]c(=S)ncc2C(=O)c2ccccc2)c1 90.6

Assign growth to the following record: COc1ccc(-c2cc(-c3ccccc3)nc(NCCNc3ccnc4cc(Cl)ccc34)n2)cc1 -87

Note growth for the compound shown: C#C[C@]1(O)CC[C@H]2[C@@H]3CC=C4c5nc(Nc6ccc(OC)cc6OC)sc5CC[C@]4(C)[C@H]3CC[C@@]21C -60

Please list growth recorded for the compound N=C(N)c1ccc(-c2ccc(-c3ccc(-c4cccs4)s3)s2)cc1F 90.3

Further cases:
For the compound COc1cc(NN=C(c2ccc(O)cc2)c2ccc(O)cc2)c([N+](=O)[O-])cc1[N+](=O)[O-] , report growth. -34.4

Hello, please tell me recorded growth for this one: CCOc1cc(/C=N\NC(=O)N/N=C/c2ccc(O)c(OCC)c2)ccc1O 24.9

Return the recorded growth value; entry: O=C(CCCSc1nc(-c2ccccc2)cc(-c2ccccc2)n1)NO -21.7

Give recorded growth. O=C1NC(=O)c2cc([N+](=O)[O-])cc3cccc1c23 98.2

Output measured growth for this item: Cn1cc(-c2nnc(-c3cn(C)c4ncccc34)o2)c2ccccc21 10
